Biological target: NKA receptor (Mesocricetus auratus, UniProt P51144)
Construct: from tissue; host or cells: hamster respiratory tract (trachea) ring specimens
Sequence (P51144 1-384): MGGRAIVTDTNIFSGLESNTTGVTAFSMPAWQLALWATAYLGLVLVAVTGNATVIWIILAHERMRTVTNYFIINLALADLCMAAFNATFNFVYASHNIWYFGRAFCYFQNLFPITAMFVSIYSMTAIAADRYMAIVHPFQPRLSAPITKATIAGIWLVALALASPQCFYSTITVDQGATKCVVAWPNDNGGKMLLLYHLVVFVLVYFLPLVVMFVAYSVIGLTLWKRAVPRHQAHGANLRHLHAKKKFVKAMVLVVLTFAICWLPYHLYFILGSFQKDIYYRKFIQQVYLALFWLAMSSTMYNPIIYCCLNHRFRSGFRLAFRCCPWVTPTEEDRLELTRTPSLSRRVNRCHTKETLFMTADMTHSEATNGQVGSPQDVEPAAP
Test: Activity to constriction of hamster respiratory tracts caused by NKA (isolated tissue, tension)
Assay type: cell-based
Exercise: state measured pIC50 for each of the molecules provided.
Numbers only, as −log10 of the molar value.

Below: 4 molecules and their reported pIC50.
SUBSTANCE_SMILES	MEASURED_NUMBER
NC(=O)CC[C@H](NC(=O)NC1CCCC1)C(=O)N[C@@H](Cc1c[nH]c2ccccc12)C(=O)NN(Cc1ccccc1)C(=O)NCCOCc1ccccc1	9.15
CC(C)(C)OC(=O)N[C@@H](CC(=O)OCc1ccccc1)C(=O)N[C@@H](CCC(N)=O)C(=O)N[C@@H](Cc1c[nH]c2ccccc12)C(=O)NN(Cc1ccccc1)C(=O)NCCOCc1ccccc1	8.72
CC(C)(C)OC(=O)N[C@@H](CCC(N)=O)C(=O)N[C@@H](Cc1c[nH]c2ccccc12)C(=O)NN(Cc1ccc(F)cc1)C(=O)NCCOCc1ccccc1	8.96
Cc1ccc(CN(NC(=O)[C@H](Cc2c[nH]c3ccccc23)NC(=O)[C@H](CCC(N)=O)NC(=O)NC(C)(C)C)C(=O)NCCOCc2ccccc2)c(C)c1	9.57

Now turn to the next molecule.
Fill in pIC50 for NC(=O)CC[C@H](NC(=O)C1CCCC1)C(=O)N[C@@H](Cc1c[nH]c2ccccc12)C(=O)NN(Cc1ccccc1)C(=O)NCCOCc1ccccc1 tested with NKA receptor (Mesocricetus auratus, UniProt P51144).
8.66

###

Target: NKA receptor (Mesocricetus auratus, UniProt P51144)
Construct: from tissue; host or cells: hamster respiratory tract (trachea) ring specimens
Test: Activity to constriction of hamster respiratory tracts caused by NKA (isolated tissue, tension)
Assay type: cell-based
Rule: IC50 below 10 nM gives true. Equal to or above 10 nM gives false.

SUBSTANCE_SMILES	CLASS_LABEL
CNC(=O)N(Cc1ccccc1)NC(=O)[C@H](Cc1c[nH]c2ccccc12)NC(=O)[C@H](CCC(N)=O)NC(=O)[C@H](CC(=O)OCc1ccccc1)NC(=O)OC(C)(C)C	false
CC(C)CCNC(=O)N[C@@H](CCC(N)=O)C(=O)N[C@@H](Cc1c[nH]c2ccccc12)C(=O)NN(Cc1ccccc1)C(=O)NCCOCc1ccccc1	true
CC(C)(C)OC(=O)N[C@@H](CC(=O)OCc1ccccc1)C(=O)N[C@@H](Cc1c[nH]c2ccccc12)C(=O)NN(Cc1ccccc1)C(=O)NCCOCc1ccccc1	false

Determine whether this compound shows IC50 lower than 10 nM (ties excluded): CC(C)(C)OC(=O)N[C@@H](CC(=O)OCc1ccccc1)C(=O)N[C@@H](CCC(N)=O)C(=O)N[C@@H](Cc1c[nH]c2ccccc12)C(=O)NN(Cc1ccccc1)C(=O)NCc1ccccc1
true

Determine whether this compound shows IC50 lower than 10 nM (ties excluded): CC(C)(C)OC(=O)N[C@@H](CCCNC(N)=O)C(=O)N[C@@H](Cc1c[nH]c2ccccc12)C(=O)NN(Cc1ccccc1)C(=O)NCCOCc1ccccc1
false

Say whether its IC50 is strictly beneath 10 nM. Entry: CC(C)CCC(=O)N[C@@H](CC(=O)OCc1ccccc1)C(=O)N[C@@H](CCC(N)=O)C(=O)N[C@@H](Cc1c[nH]c2ccccc12)C(=O)NN(Cc1ccccc1)C(=O)NCc1ccccc1
true

Could you please tell me whether IC50 recorded for CC(C)(C)NC(=O)N[C@@H](CCC(N)=O)C(=O)N[C@@H](Cc1c[nH]c2ccccc12)C(=O)NN(Cc1ccccc1F)C(=O)NCCOCc1ccccc1 is less than 10 nM?
true

Please state whether IC50 is below 10 nM for CC(C)(C)NC(=O)N[C@@H](CCC(N)=O)C(=O)N[C@@H](Cc1c[nH]c2ccccc12)C(=O)NN(Cc1ccccc1)C(=O)NCCOCc1cccnc1
false

Input NC(=O)CC[C@H](NC(=O)c1ccccc1)C(=O)N[C@@H](Cc1c[nH]c2ccccc12)C(=O)NN(Cc1ccccc1)C(=O)NCCOCc1ccccc1 ; condition: IC50 strictly below 10 nM. Does it hold?
true

# credit: patent US5837687A
